Biological target: Adrenergic receptor alpha-1 (Oryctolagus cuniculus)
Experiment: Inhibition of phenylephrine-induced contractions in white rabbit prostate.
We begin with a simple list: items and their reported pA2.
When you answer, write just the number.

Return reported pA2; argument: COc1ccc(C(CCN2CCN(c3ccccc3OC)CC2)Oc2ccc(C(=O)Nc3ccccc3OCCCC(=O)O)cc2)cc1 (stereo not drawn)
6.7

Return reported pA2; argument: COc1ccccc1N1CCN(CCC(Oc2ccc(C(=O)Nc3ccccc3OCCCC(=O)O)cc2)c2ccc(C)cc2)CC1 (stereo not drawn)
7.8

Return reported pA2; argument: COc1ccccc1N1CCN(CCCCOc2ccc(C(=O)Nc3ccccc3OCCCC(=O)O)cc2)CC1
7.1

Return reported pA2; argument: COc1ccccc1N1CCN(CCC(Oc2ccc(NC(=O)c3ccccc3OCCCC(=O)O)cc2)c2ccc(C)cc2)CC1 (stereo not drawn)
7.1

Return reported pA2; argument: COc1ccccc1N1CCN(CCC(Oc2ccc(C(=O)Nc3ccccc3OCCCC(=O)O)cc2)c2ccc(Br)cc2)CC1 (stereo not drawn)
7

Return reported pA2; argument: COc1ccccc1N1CCN(CCC(Oc2ccc(C(=O)Nc3ccccc3OCCCC(=O)O)cc2)c2ccc(CC(C)C)cc2)CC1 (stereo not drawn)
5.7

Next:
Return reported pA2; argument: COc1ccccc1N1CCN(CCCOc2ccc(C(=O)Nc3ccccc3OCCCC(=O)O)cc2)CC1
7

Return reported pA2; argument: COc1ccccc1N1CCN(CCC(Oc2ccc(NC(=O)c3ccccc3OCCCC(=O)O)cc2)c2ccc(CC(C)C)cc2)CC1 (stereo not drawn)
5.2

Return reported pA2; argument: COc1ccccc1N1CCN(CCCCC(Oc2ccc(C(=O)Nc3ccccc3OCCCC(=O)O)cc2)c2ccccc2)CC1 (stereo not drawn)
6.6

Return reported pA2; argument: CCc1ccc(C(CCN2CCN(c3ccccc3OC)CC2)Oc2ccc(C(=O)Nc3ccccc3OCCCC(=O)O)cc2)cc1 (stereo not drawn)
7.4

Return reported pA2; argument: CCc1ccc(C(CCN2CCN(c3ccccc3OC)CC2)Oc2ccc(NC(=O)c3ccccc3OCCCC(=O)O)cc2)cc1 (stereo not drawn)
6.7
